- Tested on: Hippocampal Cultures
- procedure-summary: Neuroprotection from hydrogen peroxide (oxidative stress), CFDA assay
- Assay type: cell-based
- experimental-parameters: Rattus norvegicus; 10 μM hydrogen peroxide, hippocampal cultures, CFDA (neuronal viability); read-out: NP from HP CFDA EC50
# key: entry, value: EC50

molecule: NS(=O)(=O)NCCC(O)c1ccccc1Cl (stereo not shown)
censoring-operator: =
EC50, µM: 30

molecule: NS(=O)(=O)NCCC(O)c1ccccc1F (stereo not shown)
censoring-operator: =
EC50, µM: 0.01

molecule: CCc1ccccc1C(O)CCNS(N)(=O)=O (stereo not shown)
censoring-operator: >
EC50, µM: 300

molecule: NS(=O)(=O)NCCC(O)c1ccc(F)cc1Cl (stereo not shown)
censoring-operator: >
EC50, µM: 300

molecule: NS(=O)(=O)NCCC(O)c1ccccc1 (stereo not shown) [Example 9, N-(3-phenyl-3-hydroxy-propyl)-sulfamide]
censoring-operator: >
EC50, µM: 300

molecule: NS(=O)(=O)NCC[C@@H](O)c1ccccc1Cl
censoring-operator: >
EC50, µM: 300

molecule: CC(O)(CCNS(N)(=O)=O)c1ccccc1F (stereo not shown)
censoring-operator: =
EC50, µM: 0.1

molecule: NS(=O)(=O)NCC[C@H](O)c1ccccc1Cl
censoring-operator: =
EC50, µM: 0.001

molecule: NS(=O)(=O)NCCC(O)c1ccccc1Br (stereo not shown)
censoring-operator: =
EC50, µM: 300

molecule: NS(=O)(=O)N1CCC(O)(c2ccccc2F)CC1
censoring-operator: =
EC50, µM: 1

* * *

# key: entry, value: EC50
- Test system: Hippocampal Cultures
- procedure-summary: Neuroprotection from hydrogen peroxide (oxidative stress), propidium iodide assay
- Format: cell-based
- experimental-parameters: Rattus norvegicus; 10 μM hydrogen peroxide, hippocampal cultures, propidium iodide (cell death); read-out: NP from HP PI EC50
property-measured: EC50

compound: CC(O)(CCNS(N)(=O)=O)c1ccccc1F (stereo not shown)
result: 300 µM
//
compound: CCc1ccccc1C(O)CCNS(N)(=O)=O (stereo not shown)
result: 0.01 µM
//
compound: NS(=O)(=O)NCCC(O)c1ccc(F)cc1Cl (stereo not shown)
result: > 300 µM
//
compound: NS(=O)(=O)NCC[C@@H](O)c1ccccc1Cl
result: > 300 µM

* * *

- System: Hippocampal Cultures
- procedure-summary: Neuroprotection from glutamate (excitotoxicity), CFDA assay
- Type: cell-based
- experimental-parameters: Rattus norvegicus, read-out: NP from Glutamate CFDA EC50
pEC50: −log10 of the molar value.

compound: NS(=O)(=O)NCCC(O)c1ccccc1C(F)(F)F (stereo not drawn)
censoring-operator: <
pEC50: 3.52
--
compound: NS(=O)(=O)NCCC(O)c1csc2ccccc12 (stereo not drawn)
censoring-operator: =
pEC50: 4.00
--
compound: NS(=O)(=O)NCCC(O)c1ccccc1[N+](=O)[O-] (stereo not drawn)
censoring-operator: <
pEC50: 3.52
--
compound: CC(O)(CCNS(N)(=O)=O)c1ccccc1Cl (stereo not drawn)
censoring-operator: <
pEC50: 3.52
--
compound: COc1ccccc1C(O)CCNS(N)(=O)=O (stereo not drawn)
censoring-operator: =
pEC50: 8.00
--
compound: NS(=O)(=O)NCCC(O)c1cc(F)ccc1F (stereo not drawn)
censoring-operator: =
pEC50: 4.52
--
compound: NS(=O)(=O)NCCC(O)c1c(F)cccc1F (stereo not drawn)
censoring-operator: =
pEC50: 4.00
--
compound: NS(=O)(=O)NCC[C@H](O)c1ccccc1F
censoring-operator: =
pEC50: 8.00
--
compound: CC(C)(CNS(N)(=O)=O)C(O)c1ccccc1F (stereo not drawn)
censoring-operator: =
pEC50: 7.00
